- Read-out: Intercellular Adhesion Molecule 1 (ICAM1), ICAM1 (gene 3383)
- EXPERIMENT: LTEA_HepaRG_ICAM1: Life Technologies and Expression Analysis (LTEA) Assay for Intercellular Adhesion Molecule 1 (ICAM1) using HepaRG (AID 2283507)
- RUN PARAMETERS: mRNA level, 48 h; actives raise or lower the signal
Activity calls are given as the source filed them. How the source made its calls: active means hit-call score of the fitted dose curve at least 0.9, where 1 is the maximum; inactive means score below 0.9.
Permitted responses: yes = active, no = inactive

A selection of reference data follows.
>>> discrete_label("Nc1ccccc1N")
"no"
>>> discrete_label("O=[N+]([O-])C(CO)(CO)CO")
"no"
>>> discrete_label("CCCCCCCCCCCCCO")
"no"
>>> discrete_label("COC(=O)c1ccc(O)cc1")
"no"

-- ask Could you kindly confirm the outcome this assay logged for `Cc1cc(NC(=O)C(=O)O)cc(C)c1Oc1ccc(O)c2c1CCC2` ?
-- reply no

-- ask Any idea what this test logged for `Cc1cccc([N+](=O)[O-])c1C` ?
-- reply no

-- ask Please let me know the test result on file for `CCCc1cc(=O)[nH]c(=S)[nH]1` .
-- reply no

-- ask Kindly provide the recorded test outcome for the following compound: `CC1(C)NC(=O)NC1=O`
-- reply no

-- ask Record lookup: outcome of this test for `O=C(O)CCCCC(=O)O` ?
-- reply no

-- ask Hey, what did the test say about `CNCc1cc(F)ccc1Oc1ccc(Cl)c(Cl)c1` ?
-- reply yes

-- ask Entry `CC(C)(C)c1cc(O)c(C(C)(C)C)cc1O` : call = ?
-- reply yes

-- ask Test call, this compound: `C1CCC(SSC2CCCCC2)CC1`
-- reply no

-- ask Write down the call the test reported for this compound. Item: `CNC(=O)[C@H]1O[C@@H](n2cnc3c(NCc4cc(Cl)ccc4OCc4cc(C)no4)ncnc32)[C@H](O)[C@@H]1N`
-- reply no

-- ask Hey, what did the test say about `CC(C)c1ccc(C(=O)N=C(N)N)cc1S(C)(=O)=O` ?
-- reply yes

-- ask Recorded test call requested for `CCCCN(CCCC)CCCC`
-- reply no

-- ask Kindly provide the recorded test outcome for the following compound: `C=CCc1ccc(O)c(OC)c1`
-- reply no

-- ask Record request — test call for `Cc1cc(=O)[nH]c(=S)[nH]1`
-- reply no

-- ask Give the logged outcome of this assay for the following compound: `CCCCCCCCCCCCCCCC`
-- reply no

-- ask Which result was noted for this compound in the test: `Oc1ccc2c(c1)OC[C@@H](N1CCC(O)(c3ccc(F)cc3)CC1)[C@H]2O`
-- reply no

-- ask Record request — test call for `COc1ccc(S(=O)(=O)N2C(=O)[C@@](c3ccccc3OC)(N3C[C@H](O)C[C@H]3C(=O)N(C)C)c3cc(Cl)ccc32)c(OC)c1`
-- reply yes
